Known MIC of a selection of compounds
Tested on: Escherichia coli EC-1: VOGEL, mouse virulent
Experiment: MIC determination, EC-1
Type: cell-based
Conditions: Escherichia coli, read-out: EC-1 (MIC), Table 3, lower of duplicate values

[
  {
    "Compound": "CC(CCn1cc(F)c(-c2ccc(C#N)nc2)cc1=O)(C(=O)NO)S(C)(=O)=O (centres unmarked)",
    "Assay target": "Escherichia coli EC-1: VOGEL, mouse virulent",
    "MIC": "> 64 µg/mL"
  }
]

For the compound CN1Cc2cc(-c3cc(=O)n(CCC(C)(C(=O)NO)S(C)(=O)=O)cc3F)ccc2C1=O (centres unmarked) , what MIC is on record? > 64 µg/mL

For the compound CN(C)C(=O)c1ccc(-c2cc(=O)n(CCC(C)(C(=O)NO)S(C)(=O)=O)cc2F)cc1 (centres unmarked) , what MIC is on record? > 64 µg/mL

###

System: Escherichia coli EC-1: VOGEL, mouse virulent
Test: MIC determination, EC-1
Format: cell-based
Conditions: Escherichia coli, read-out: EC-1 (MIC), Table 2, lower of duplicate values
Readout: MIC

[
  {
    "Compound": "COc1ccc(-c2cc(=O)n(CC[C@](C)(C(=O)NO)S(C)(=O)=O)cc2F)cc1F [Example 19]",
    "Assay target": "Escherichia coli EC-1: VOGEL, mouse virulent",
    "Readout": "MIC",
    "Reported result": "2 µg/mL"
  }
]

For the compound C[C@@](CCn1cc(F)c(-c2ccc(S(F)(F)(F)(F)F)cc2)cc1=O)(C(=O)NO)S(C)(=O)=O [Example 12] , what MIC is on record? 4 µg/mL

###

System: Escherichia coli EC-1: VOGEL, mouse virulent
Experiment: MIC determination, EC-1
Type: cell-based
Conditions: Escherichia coli, read-out: EC-1 (MIC), Table 3, lower of duplicate values
Readout: MIC (µg/mL)
Give just the numeric value; µg/mL need not be written.

Examples with answers:
[
  {
    "Molecule": "COc1ccc(-c2cc(=O)n(CCC(C)(C(=O)NO)S(C)(=O)=O)cc2F)cn1 (centres unmarked) [Example 89]",
    "MIC (µg/mL)": 8
  },
  {
    "Molecule": "CN(C)c1ncc(-c2cc(=O)n(CCC(C)(C(=O)NO)S(C)(=O)=O)cc2F)cn1 (centres unmarked) [Example 115]",
    "MIC (µg/mL)": 32
  },
  {
    "Molecule": "CC(CCn1cc(F)c(-c2ccc(C#N)cc2)cc1=O)(C(=O)NO)S(C)(=O)=O (centres unmarked) [Example 124]",
    "MIC (µg/mL)": 32
  },
  {
    "Molecule": "COc1ccc(-c2cc(=O)n(CCC(C)(C(=O)NO)S(C)(=O)=O)cc2F)cc1OC (centres unmarked) [Example 98]",
    "MIC (µg/mL)": 64
  },
  {
    "Molecule": "CC(CCn1cc(F)c(-c2ccc(CC#N)cc2)cc1=O)(C(=O)NO)S(C)(=O)=O (centres unmarked) [Example 91]",
    "MIC (µg/mL)": 16
  }
]

For the next question, use this molecule.
Item: CC(CCn1cc(F)c(-c2ccc(Cl)cc2F)cc1=O)(C(=O)NO)S(C)(=O)=O (centres unmarked) [Example 66] Test system: Escherichia coli EC-1: VOGEL, mouse virulent Read-out: MIC Value: ? 0.5

###

Test system: Acinetobacter baumannii/haemolyticus, multidrug-resistant clinical isolate (AB-3167)
Experiment: MIC determination, AB-3167
Format: cell-based
Conditions: Table 2, lower of duplicate values
Readout: MIC

Examples with answers:
[
  {
    "Structure as smiles": "C[C@@](CCn1cc(F)c(-c2ccc(S(F)(F)(F)(F)F)cc2)cc1=O)(C(=O)NO)S(C)(=O)=O",
    "MIC": "> 64 µg/mL"
  },
  {
    "Structure as smiles": "COc1c(-c2ccccc2)c(F)cn(CC[C@](C)(C(=O)NO)S(C)(=O)=O)c1=O",
    "MIC": "64 µg/mL"
  },
  {
    "Structure as smiles": "C[C@@](CCn1cc(F)c(-c2cccc(Oc3nccs3)c2)cc1=O)(C(=O)NO)S(C)(=O)=O",
    "MIC": "> 64 µg/mL"
  },
  {
    "Structure as smiles": "C[C@@](CCn1cc(F)c(-c2ccc3c(c2)OC(F)(F)O3)cc1=O)(C(=O)NO)S(C)(=O)=O",
    "MIC": "> 64 µg/mL"
  },
  {
    "Structure as smiles": "C[C@@](CCn1cc(F)c(-c2ccc(-c3ccon3)cc2)cc1=O)(C(=O)NO)S(C)(=O)=O",
    "MIC": "16 µg/mL"
  },
  {
    "Structure as smiles": "CCOc1ccc(-c2cc(=O)n(CC[C@](C)(C(=O)NO)S(C)(=O)=O)cc2F)cc1",
    "MIC": "> 64 µg/mL"
  },
  {
    "Structure as smiles": "C[C@@](CCn1cc(F)c(-c2ccc(-n3nccn3)c(F)c2)cc1=O)(C(=O)NO)S(C)(=O)=O",
    "MIC": "> 64 µg/mL"
  },
  {
    "Structure as smiles": "C[C@@](CCn1cc(F)c(-c2ccc(-c3ncccn3)cc2)cc1=O)(C(=O)NO)S(C)(=O)=O",
    "MIC": "> 64 µg/mL"
  }
]

For the molecule [2H]C([2H])([2H])Oc1ccc(-c2cc(=O)n(CC[C@](C)(C(=O)NO)S(C)(=O)=O)cc2F)cc1 , what MIC is on record? > 64 µg/mL

###

Biological target: Pseudomonas aeruginosa LpxC enzyme (Pseudomonas aeruginosa)
Construct: made in house; host or cells: E. coli
Test: IC50 assay, LpxC enzyme from P. aeruginosa (PA LpxC enzyme IC50)
Format: biochemical
Details: Table 3; LpxC enzyme 0.1 nM, 25° C., 1 hour; read-out: PA:IC50
Readout: IC50

Examples with answers:
[
  {
    "Molecule": "CC(CCn1cc(F)c(-c2ccc(CO)nc2)cc1=O)(C(=O)NO)S(C)(=O)=O (stereo not drawn)",
    "Assay target": "Pseudomonas aeruginosa LpxC enzyme (Pseudomonas aeruginosa)",
    "IC50": "> 0.1 µM"
  },
  {
    "Molecule": "CC(C)Oc1ncccc1-c1cc(=O)n(CCC(C)(C(=O)NO)S(C)(=O)=O)cc1F (stereo not drawn)",
    "Assay target": "Pseudomonas aeruginosa LpxC enzyme (Pseudomonas aeruginosa)",
    "IC50": "> 0.1 µM"
  }
]

For the next question, use this molecule.
For the molecule CC(=O)Nc1cccc(-c2cc(=O)n(CCC(C)(C(=O)NO)S(C)(=O)=O)cc2F)c1 (stereo not drawn) , what IC50 is on record? > 0.1 µM

###

Molecular target: Pseudomonas aeruginosa LpxC enzyme (Pseudomonas aeruginosa, UniProt P47205)
Construct: made in house; host or cells: E. coli
Sequence (P47205 whole entry): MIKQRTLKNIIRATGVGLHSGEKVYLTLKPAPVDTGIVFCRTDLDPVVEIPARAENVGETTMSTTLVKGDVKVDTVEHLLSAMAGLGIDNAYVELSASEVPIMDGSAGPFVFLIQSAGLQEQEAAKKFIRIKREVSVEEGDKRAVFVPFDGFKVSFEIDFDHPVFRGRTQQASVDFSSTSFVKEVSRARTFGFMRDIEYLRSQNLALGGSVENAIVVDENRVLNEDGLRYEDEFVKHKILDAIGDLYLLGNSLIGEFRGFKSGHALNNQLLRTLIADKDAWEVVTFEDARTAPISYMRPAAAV
Assay: IC50 assay, LpxC enzyme from P. aeruginosa (PA LpxC enzyme IC50)
Assay type: biochemical
Conditions: Table 2; LpxC enzyme 0.1 nM, 25° C., 1 hour; read-out: PA:IC50
Known pIC50 of a selection of molecules
Please express pIC50 as -log10 of the molar concentration.

[
  {
    "Structure as smiles": "[2H]C([2H])([2H])C([2H])([2H])Oc1ccc(-c2cc(=O)n(CC[C@](C)(C(=O)NO)S(C)(=O)=O)cc2F)cc1",
    "pIC50": 9.26
  },
  {
    "Structure as smiles": "C[C@@](CCn1cc(F)c(-c2ccc(OCC(F)(F)F)cc2)cc1=O)(C(=O)NO)S(C)(=O)=O",
    "pIC50": 9.24
  },
  {
    "Structure as smiles": "C[C@@](CCn1cc(F)c(-c2ccc3c(c2)CCO3)cc1=O)(C(=O)NO)S(C)(=O)=O",
    "pIC50": 9.09
  },
  {
    "Structure as smiles": "C[C@@](CCn1cc(F)c(C#Cc2ccccc2)cc1=O)(C(=O)NO)S(C)(=O)=O",
    "pIC50": 9.26
  },
  {
    "Structure as smiles": "C[C@@](CCn1cc(F)c(-c2ccc(OC[C@H]3CC[C@H](O)CC3)cc2)cc1=O)(C(=O)NO)S(C)(=O)=O",
    "pIC50": 9.33
  }
]

For the next question, use this molecule.
For the molecule C[C@@](CCn1cc(F)c(-c2ccc(Cl)cc2)cc1=O)(C(=O)NO)S(C)(=O)=O , what pIC50 is on record? 9.49

###

Known MIC of a selection of molecules
System: Escherichia coli EC-1: VOGEL, mouse virulent
Assay: MIC determination, EC-1
Assay type: cell-based
Details: Escherichia coli, read-out: EC-1 (MIC), Table 3, lower of duplicate values
Give just the numeric value; µg/mL need not be written.

[
  {
    "Molecule": "Cc1cc(-c2cc(=O)n(CCC(C)(C(=O)NO)S(C)(=O)=O)cc2F)ccc1C#N (centres unmarked)",
    "Readout": "MIC",
    "Unit annotation": "µg/mL",
    "Reported result": 4
  },
  {
    "Molecule": "CC(CCn1cc(F)c(-c2ccc(F)cc2)cc1=O)(C(=O)NO)S(C)(=O)=O (centres unmarked)",
    "Readout": "MIC",
    "Unit annotation": "µg/mL",
    "Reported result": 4
  },
  {
    "Molecule": "CCOc1cccc(-c2cc(=O)n(CCC(C)(C(=O)NO)S(C)(=O)=O)cc2F)c1 (centres unmarked)",
    "Readout": "MIC",
    "Unit annotation": "µg/mL",
    "Reported result": 2
  },
  {
    "Molecule": "COc1cc(C)cc(-c2cc(=O)n(CCC(C)(C(=O)NO)S(C)(=O)=O)cc2F)c1F (centres unmarked)",
    "Readout": "MIC",
    "Unit annotation": "µg/mL",
    "Reported result": 4
  },
  {
    "Molecule": "CNC(=O)c1ccc(-c2cc(=O)n(CCC(C)(C(=O)NO)S(C)(=O)=O)cc2F)cc1F (centres unmarked)",
    "Readout": "MIC",
    "Unit annotation": "µg/mL",
    "Reported result": 64
  },
  {
    "Molecule": "CCOc1ccc(-c2cc(=O)n(CCC(C)(C(=O)NO)S(C)(=O)=O)cc2F)cc1F (centres unmarked)",
    "Readout": "MIC",
    "Unit annotation": "µg/mL",
    "Reported result": 1
  }
]

For the next question, use this molecule.
Item: COc1ccc(-c2cc(=O)n(CCC(C)(C(=O)NO)S(C)(=O)=O)cc2F)cc1 (centres unmarked) Test system: Escherichia coli EC-1: VOGEL, mouse virulent Read-out: MIC Value: ? 1

Value source: patent US8624034B2
